The measured values listed here are drawn from the supplement of paper PMC10567573.

# protein stability index per record follows
B1: DCAF4 (parent)
chain: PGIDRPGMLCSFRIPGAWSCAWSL

variants of: B1; experiment: protein stability index of a GFP-peptide fusion (GPS, HEK-293T) (PSI 1-6); higher = more stable; settings: c terminus: a fixed tail appended;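 further: lentivirally expressed fusions sorted by FACS into six bins by GFP to DsRed ratio, PSI derived from sequencing read proportions per bin multiplied by bin number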
property_label: protein stability index

mutation_spec | property_label | observed
I3M | protein stability index | 2.5
L24V | protein stability index | 2.71
C20Q | protein stability index | 1.56
